# Tested on: Escherichia coli TOP10;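 note: peptides expressed intracellularly from a pBAD plasmid library in pooled LB shake-flask culture, induced with 0.3% L-arabinose, DNA abundance read by NGS, three biological replicates, DESeq2 with apeglm shrinkage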
# assay notes: shrunken log2 fold change of peptide-encoding DNA abundance (4.5 h post-induction vs induction); higher = less antimicrobial activity (less host growth inhibition)
# condition description: time post-induction: 4.5 h; library: site-saturation at positions 5, 18, 19, 20
// shrunken log2 fold change lookup, one value per entry
readout type: shrunken log2 fold change

           ordered_residues             test_target               readout_type   result
 0  RRIRERPPRLPRPRPRPMFKPRP  Escherichia coli TOP10  shrunken log2 fold change   -0.204
 1  RRIRFRPPRLPRPRPRPTSLPRP  Escherichia coli TOP10  shrunken log2 fold change    -1.17
 2  RRIRPRPPRLPRPRPRPYFEPRP  Escherichia coli TOP10  shrunken log2 fold change   -0.633
 3  RRIRWRPPRLPRPRPRPCTLPRP  Escherichia coli TOP10  shrunken log2 fold change   -0.842
 4  RRIRCRPPRLPRPRPRPREKPRP  Escherichia coli TOP10  shrunken log2 fold change     1.12
 5  RRIRYRPPRLPRPRPRPVGKPRP  Escherichia coli TOP10  shrunken log2 fold change    -1.51
 6  RRIRERPPRLPRPRPRPMRMPRP  Escherichia coli TOP10  shrunken log2 fold change  -0.0542
 7  RRIRKRPPRLPRPRPRPFANPRP  Escherichia coli TOP10  shrunken log2 fold change  -0.0377
 8  RRIRPRPPRLPRPRPRPHVNPRP  Escherichia coli TOP10  shrunken log2 fold change    -0.38
 9  RRIRGRPPRLPRPRPRPACFPRP  Escherichia coli TOP10  shrunken log2 fold change    0.939
10  RRIRQRPPRLPRPRPRPLAYPRP  Escherichia coli TOP10  shrunken log2 fold change  -0.0738
11  RRIRFRPPRLPRPRPRPTLYPRP  Escherichia coli TOP10  shrunken log2 fold change   -0.189
12  RRIRVRPPRLPRPRPRPCPEPRP  Escherichia coli TOP10  shrunken log2 fold change   -0.189
13  RRIRERPPRLPRPRPRPGAMPRP  Escherichia coli TOP10  shrunken log2 fold change    0.316
14  RRIRNRPPRLPRPRPRPSMQPRP  Escherichia coli TOP10  shrunken log2 fold change   -0.152
